# ASSAY_PROCEDURE: Study 2: ascending repeated-dose PK in healthy adults
# Type: in vivo, human
# SETUP_CONDITIONS: both sexes, human, plasma, oral, 5 mg, Day 14, 5 mg once daily, N = 9; read-out: t1/2, Geometric mean (converted)
# Procedure: The study enrolled and randomized 36 healthy adults (19 men and 17 women) (n=9 each to group). Pharmacodynamic endpoints (plasma GL-1, GL-3, and GM3 concentrations) were assessed on Days 1-5, 8, 11, 13, and 14, at 0 hours […]; and on Day 15, at 24 hours after the Day 14 dose.
ATTRIBUTE_MEASURED: half-life

Query: Dear colleague, I am looking for the recorded half-life of the following molecule: `CC(C)(NC(=O)O[C@@H]1CN2CCC1CC2)c1csc(-c2ccc(F)cc2)n1`
Response: 29 h

The reported measurements were obtained from patent US12083115B2.
